# target.or.system: MAPK1 (Homo sapiens)
# Construct: made in house
# Sequence (P28482 whole entry, species assumed): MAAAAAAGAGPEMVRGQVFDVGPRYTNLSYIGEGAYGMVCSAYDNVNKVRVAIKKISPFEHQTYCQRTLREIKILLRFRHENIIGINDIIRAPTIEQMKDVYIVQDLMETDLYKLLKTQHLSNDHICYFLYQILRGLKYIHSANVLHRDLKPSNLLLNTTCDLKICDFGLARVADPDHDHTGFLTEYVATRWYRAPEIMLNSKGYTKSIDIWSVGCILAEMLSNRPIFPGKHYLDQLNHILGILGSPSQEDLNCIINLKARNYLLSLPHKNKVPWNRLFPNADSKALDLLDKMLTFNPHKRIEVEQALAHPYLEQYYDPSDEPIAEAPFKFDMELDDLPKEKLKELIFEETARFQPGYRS
# measurement.description: Liability panel screening by DSF: MAPK1
# Format: binding
# conditions: DSF, 20 µM, n=2; read-out: Mean ΔTM MAPK1
The threshold is inclusive: ΔTm at 20 µM of exactly 0.3 °C counts as Criterion met; values below receive Criterion not met.

compound | group.label
COc1cc(/C=C(\C#N)C(=O)Nc2nnc(C(F)(F)F)s2)ccc1OCc1ccc(C(F)(F)F)cc1C(F)(F)F | Criterion not met
CC(=O)OCC(=O)[C@@]1(O)CC[C@H]2[C@@H]3CCC4=CC(=O)CC[C@]4(C)[C@@]3(F)[C@@H](O)C[C@@]21C [Fludrocortisone acetate] | Criterion met
CC/C(=C(\c1ccc(O)cc1)c1ccc(OCCN(C)C)cc1)c1ccccc1 [(Z)-4-Hydroxytamoxifen] | Criterion not met
COc1ccc2c(c1)OC(C)(C)C(c1ccccc1)C2c1ccc(OCCN2CCCC2)cc1 (centres unmarked) | Criterion not met
CC(C)(c1ccc(O)cc1)c1ccc(O)cc1 | Criterion not met

* * *

# maps each entry to its Mean NFκB response
# System: NF-κB activity in HEK293 NF-κB reporter cells
# measurement.description: NF-kB activity assay (GFP reporter, ionomycin/PMA)
# Type: cell-based
# conditions: 1 µM, 12 h, n=3

compound | target.or.system | Mean NFκB response
CC(=O)O[C@]1(C(C)=O)CC[C@H]2[C@@H]3C=C(Cl)C4=CC(=O)[C@@H]5C[C@@H]5[C@]4(C)[C@H]3CC[C@@]21C [Cyproterone acetate] | NF-κB activity in HEK293 NF-κB reporter cells | 23573.19 GFP+-cells/confluence ∙ 1000
N#Cc1ccc(N2N=C3c4ccc(C(=O)O)cc4CC[C@@H]3[C@@H]2C2CCCC2)cc1Cl [PF-03882845] | NF-κB activity in HEK293 NF-κB reporter cells | 21213.33 GFP+-cells/confluence ∙ 1000
COc1ccc2c(c1)OC(C)(C)C(c1ccccc1)C2c1ccc(OCCN2CCCC2)cc1 (centres unmarked) [Ormeloxifene] | NF-κB activity in HEK293 NF-κB reporter cells | 25867.46 GFP+-cells/confluence ∙ 1000
Oc1ccc(-c2nc3cc(O)cc(Br)c3o2)cc1 [WAY200070] | NF-κB activity in HEK293 NF-κB reporter cells | 23519.76 GFP+-cells/confluence ∙ 1000
CC(=O)O[C@]1(C(C)=O)CC[C@H]2[C@@H]3CCC4=CC(=O)CCC4=C3[C@@H](c3ccc(N(C)C)cc3)C[C@@]21C [Ulipristal acetate] | NF-κB activity in HEK293 NF-κB reporter cells | 21213.33 GFP+-cells/confluence ∙ 1000
Cc1c(-c2ccc(O)cc2)n(Cc2ccc(OCCN3CCCCCC3)cc2)c2ccc(O)cc12 [Bazedoxifene] | NF-κB activity in HEK293 NF-κB reporter cells | 17230.27 GFP+-cells/confluence ∙ 1000
CCCc1c(-c2ccc(O)cc2)nn(-c2ccc(O)cc2)c1-c1ccc(O)cc1 [Propylpyrazoletriol] | NF-κB activity in HEK293 NF-κB reporter cells | 23751.78 GFP+-cells/confluence ∙ 1000
O=C(/C=C/c1ccc(O)cc1)c1ccc(O)cc1O [Isoliquiritigenin] | NF-κB activity in HEK293 NF-κB reporter cells | 24113.33 GFP+-cells/confluence ∙ 1000
O=S(=O)(Cc1ccccc1)Nc1ccc(-c2ccc3c(cnn3-c3ccc(F)cc3)c2)c(C(F)(F)F)c1 [GSK9027] | NF-κB activity in HEK293 NF-κB reporter cells | 9593.56 GFP+-cells/confluence ∙ 1000
CC(=O)Nc1ccc(OC[C@](C)(O)C(=O)Nc2ccc([N+](=O)[O-])c(C(F)(F)F)c2)cc1 [Andarine] | NF-κB activity in HEK293 NF-κB reporter cells | 10166.51 GFP+-cells/confluence ∙ 1000
COc1cccc([C@@H](Oc2ccc3c(cnn3-c3ccc(F)cc3)c2)[C@H](C)NC(=O)C(F)(F)F)c1 [AZD5423] | NF-κB activity in HEK293 NF-κB reporter cells | 14943.33 GFP+-cells/confluence ∙ 1000
